target_of_assay: human glucagon receptor (human, UniProt P47871 26-477)
Sequence (P47871 26-477): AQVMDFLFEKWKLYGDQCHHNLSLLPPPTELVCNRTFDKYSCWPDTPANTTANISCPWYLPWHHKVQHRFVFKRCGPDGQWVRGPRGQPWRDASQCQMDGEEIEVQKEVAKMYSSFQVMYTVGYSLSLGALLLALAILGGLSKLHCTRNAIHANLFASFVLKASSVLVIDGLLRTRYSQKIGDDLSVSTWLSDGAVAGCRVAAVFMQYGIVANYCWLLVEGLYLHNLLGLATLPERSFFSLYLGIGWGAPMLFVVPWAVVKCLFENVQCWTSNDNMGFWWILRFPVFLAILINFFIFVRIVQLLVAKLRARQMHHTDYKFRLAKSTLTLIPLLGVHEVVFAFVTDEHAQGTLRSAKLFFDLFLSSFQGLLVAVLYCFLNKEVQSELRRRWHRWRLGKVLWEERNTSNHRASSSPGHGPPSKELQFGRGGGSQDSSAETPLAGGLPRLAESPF
test_name: cell-based or functional assay
No end group written: not given here.
reported_endpoint: EC50 hGlucagon-R, cAMP formation
Returns: string containing the number followed by the unit.

stdin: Which EC50 hGlucagon-R, cAMP formation reading was recorded for the binder HSQGTFTSDLSKQLESRRAQEFIEWLLATGPESGAPPPS-OH [SEQ ID NO: 34] ?
stdout: 1.4 pM

stdin: Field entry: HSQGTFTSDISKQLESRRAQEFIEWLLATGPESGAPPPS-OH [SEQ ID NO: 31]
stdout: 4.1 pM

stdin: Another binder: HSQGTFTSDYSKQLESRRAQEFIEWLLATGPESGAPPPS-OH [SEQ ID NO: 29]
stdout: 0.9 pM

stdin: Proceed to HSQGTFTSDYSKQLESRRAQEFIEWLLAGGPESGAPPPS-OH [SEQ ID NO: 28]
stdout: 1 pM

stdin: // next record HSQGTFTSDVSKQLESRRAQEFIEWLLATGPESGAPPPS-OH [SEQ ID NO: 30]
stdout: 6.5 pM

stdin: Same question for HSQGTFTSDLSKQLESRRAQDFIEWLLATGPESGAPPPS-OH [SEQ ID NO: 35] please.
stdout: 7.1 pM

stdin: Same for HSQGTFTSDLSKQLESRRAQEFIEWLLAGGPESGAPPPS-OH [SEQ ID NO: 27]
stdout: 1.3 pM
